# tgt: OR8/OR7 (Anopheles gambiae, UniProt Q7PUT5+Q7QCC7)
# Sequence (Q7QCC7 whole entry): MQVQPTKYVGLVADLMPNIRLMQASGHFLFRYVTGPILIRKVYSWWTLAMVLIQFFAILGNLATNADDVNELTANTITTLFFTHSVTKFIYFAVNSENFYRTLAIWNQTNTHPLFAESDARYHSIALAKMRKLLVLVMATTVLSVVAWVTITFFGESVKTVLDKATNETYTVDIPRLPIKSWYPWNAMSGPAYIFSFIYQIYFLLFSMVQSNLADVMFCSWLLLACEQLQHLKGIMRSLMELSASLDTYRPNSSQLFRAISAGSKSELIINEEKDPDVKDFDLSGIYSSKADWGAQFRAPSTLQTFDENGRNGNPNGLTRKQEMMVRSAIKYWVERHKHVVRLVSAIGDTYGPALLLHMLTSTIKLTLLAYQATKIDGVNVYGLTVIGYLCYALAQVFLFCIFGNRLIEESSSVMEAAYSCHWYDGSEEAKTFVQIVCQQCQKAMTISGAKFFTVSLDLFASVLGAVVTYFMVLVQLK
# Sequence (Q7PUT5 entry or part of it): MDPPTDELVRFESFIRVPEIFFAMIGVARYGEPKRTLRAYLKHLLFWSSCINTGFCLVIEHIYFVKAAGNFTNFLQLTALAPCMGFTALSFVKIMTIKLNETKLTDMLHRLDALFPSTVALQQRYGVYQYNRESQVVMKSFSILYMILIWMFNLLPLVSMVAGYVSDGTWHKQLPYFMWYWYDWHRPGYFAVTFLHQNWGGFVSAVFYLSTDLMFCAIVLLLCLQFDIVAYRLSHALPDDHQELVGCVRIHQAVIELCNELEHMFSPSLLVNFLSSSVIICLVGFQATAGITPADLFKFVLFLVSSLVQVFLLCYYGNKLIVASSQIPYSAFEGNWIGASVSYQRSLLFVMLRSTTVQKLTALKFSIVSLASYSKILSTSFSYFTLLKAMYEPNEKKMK
# assay text: Ca2+-imaging of stable HEK293T cell line OR8/OR7
# Format: cell-based
# reported conditions: HEK-293T; compound applied at 4 μM; read-out: Percent Inhibition OR8 OR7
result type: inhibition at 4 µM

Worked examples follow.
COCCNC(=O)c1ccc(CSc2nnc(-c3ccc(C)cc3)n2-c2ccccc2C)cc1 | 26 to 50%
O=C(c1ccco1)N(Cc1nccn1Cc1ccccc1Cl)CC1CC1 | > 75%
COc1nc(NC(C)C)nc(NC(C)C)n1 | 26 to 50%
CCN(CC)c1onc(-c2ccccc2)c1CN(CC1CCCO1)C(=O)c1ccc2c(c1)OCO2 (stereo not shown) | 51 to 74%
Cc1ccc(CN(CCc2ccccc2)C(=O)CN(C(=O)NC(C)(C)C)C(C)C)o1 | < 25%

**Q:** # value lookup — system OR8/OR7 (Anopheles gambiae, UniProt Q7PUT5+Q7QCC7), readout inhibition at 4 µM, item COCCN(Cc1c(-c2ccccc2)noc1N1CCSCC1)CC(O)COCc1ccco1 (stereo not shown)
**A:** 26 to 50%

**Q:** # value lookup — system OR8/OR7 (Anopheles gambiae, UniProt Q7PUT5+Q7QCC7), readout inhibition at 4 µM, item CC(NC(=O)c1cc2n(n1)CCN(Cc1c(Cl)cccc1Cl)C2=O)c1ccccc1 (stereo not shown)
**A:** < 25%

----------
# tgt: TRP channel (TRPM8) (Mus musculus)
# Construct: Full-length cDNAs for mosquito (Anopheles gambiae) odorant receptor (OR1, OR2, OR7, OR8, OR28), and fly (Drosophila melanogaster) odorant receptor (Or47a, Or83b), mouse TRP channel (TRPM8); expressed in transfected cells
# Sequence (Q8R4D5 whole entry): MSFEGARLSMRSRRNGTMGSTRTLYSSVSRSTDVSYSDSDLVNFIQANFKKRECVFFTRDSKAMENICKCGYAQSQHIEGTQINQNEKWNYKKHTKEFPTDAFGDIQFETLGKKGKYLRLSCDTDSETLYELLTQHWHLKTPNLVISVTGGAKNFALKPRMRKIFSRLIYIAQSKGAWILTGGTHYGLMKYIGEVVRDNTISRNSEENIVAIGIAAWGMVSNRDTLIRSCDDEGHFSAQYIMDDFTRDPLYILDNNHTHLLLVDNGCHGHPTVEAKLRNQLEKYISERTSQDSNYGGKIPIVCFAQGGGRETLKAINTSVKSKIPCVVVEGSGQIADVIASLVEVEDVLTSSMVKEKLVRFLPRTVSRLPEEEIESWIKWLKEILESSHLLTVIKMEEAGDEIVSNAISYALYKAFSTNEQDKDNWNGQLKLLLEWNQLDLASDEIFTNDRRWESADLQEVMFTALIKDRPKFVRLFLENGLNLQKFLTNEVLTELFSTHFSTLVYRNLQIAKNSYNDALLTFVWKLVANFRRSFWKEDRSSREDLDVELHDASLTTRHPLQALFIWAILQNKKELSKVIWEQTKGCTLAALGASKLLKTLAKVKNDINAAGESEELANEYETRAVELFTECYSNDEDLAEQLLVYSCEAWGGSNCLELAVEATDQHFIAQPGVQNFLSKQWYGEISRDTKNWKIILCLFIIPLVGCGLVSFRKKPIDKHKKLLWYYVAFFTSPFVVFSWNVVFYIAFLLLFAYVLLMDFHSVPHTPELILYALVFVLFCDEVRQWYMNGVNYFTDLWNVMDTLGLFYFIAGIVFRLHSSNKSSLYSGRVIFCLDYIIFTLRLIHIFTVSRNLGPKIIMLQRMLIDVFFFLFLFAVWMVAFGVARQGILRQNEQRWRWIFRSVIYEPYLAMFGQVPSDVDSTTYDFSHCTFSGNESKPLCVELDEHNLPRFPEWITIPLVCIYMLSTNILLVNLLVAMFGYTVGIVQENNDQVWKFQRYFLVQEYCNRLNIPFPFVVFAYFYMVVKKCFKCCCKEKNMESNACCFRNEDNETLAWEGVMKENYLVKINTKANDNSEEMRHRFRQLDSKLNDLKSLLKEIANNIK
# assay text: Ca2+-imaging of stable HEK293T cell line TRPM8
# Assay type: cell-based
# reported conditions: HEK-293T; compound applied at 4 μM; read-out: Percent Inhibition TRPM8
result type: inhibition at 4 µM

CCN(CC)c1onc(-c2ccc(F)cc2)c1CN(CCCOC)C(=O)c1ccc2c(c1)OCO2 [RU-0036983] | 26 to 50%
COc1cccc(NC(=O)CCC2CCN(C(=O)CSc3ccccc3)CC2)c1 [RU-0032474] | < 25%
O=C(c1ccco1)N(Cc1nccn1Cc1ccccc1Cl)CC1CC1 [RU-0047281] | 51 to 74%
O=C(c1cccnc1Cl)N1CCOC(COCc2c(Cl)cccc2Cl)C1 (stereo not drawn) [RU-0050372] | < 25%
O=C(c1cccc(F)c1)N(Cc1c(-c2ccccc2)noc1N1CCCC1)CC1CCCO1 (stereo not drawn) [RU-0037434] | < 25%

**Q:** What inhibition at 4 µM value was documented for this compound, COCCCN(Cc1c(-c2ccccc2)noc1N1CCCC1)C(=O)c1ccc(F)cc1 [RU-0037386] ?
**A:** < 25%

**Q:** What inhibition at 4 µM value was documented for this compound, Cc1ccc(CN(Cc2ccc(F)cc2)C(=O)CN(C(=O)NC(C)(C)C)C2CC2)s1 [RU-0052360] ?
**A:** 26 to 50%

**Q:** What inhibition at 4 µM value was documented for this compound, CC(C)CN(Cc1nccn1Cc1ccc(Cl)cc1Cl)C(=O)c1ccccc1F [RU-0055322] ?
**A:** < 25%

**Q:** What inhibition at 4 µM value was documented for this compound, O=C(c1ccco1)N(Cc1nccn1Cc1c(F)cccc1Cl)C1CC1 [RU-0048046] ?
**A:** < 25%

----------
# maps each entry to its inhibition at 4 µM
# tgt: OR8/OR7 (Anopheles gambiae, UniProt Q7PUT5+Q7QCC7)
# assay text: Ca2+-imaging of stable HEK293T cell line OR8/OR7
# Assay type: cell-based
# reported conditions: HEK-293T; compound applied at 4 μM; read-out: Percent Inhibition OR8 OR7

COCCCN(Cc1c(-c2ccccc2)noc1N1CCC(C)CC1)C(=O)c1ccccc1F [RU-0036876] | 51 to 74%
CC(C)N(Cc1nccn1Cc1c(F)cccc1Cl)C(=O)c1ccc(Cl)cc1 [RU-0055364] | 26 to 50%
CCOC(=O)CCC(=O)N(CCc1ccccc1)CC(=O)Nc1cc(C(C)(C)C)nn1-c1ccccc1C [RU-0072462] | < 25%
COc1ccccc1N1CCN(C(=O)c2cc3n(n2)CCN(Cc2c(F)cccc2Cl)C3=O)CC1 [RU-0043595] | 26 to 50%
Cc1ccc(CN(Cc2ccc(F)cc2)C(=O)CN(C(=O)NC(C)(C)C)C2CC2)s1 [RU-0052360] | 51 to 74%

Please look at the following molecule next.
**Q:** What inhibition at 4 µM value was documented for this molecule, Cc1cc(C)c(Cn2ccnc2CN(C(=O)c2ccccc2F)C(C)C)c(C)c1 [RU-0048001] ?
**A:** 26 to 50%
